- Tested on: MYB mRNA
- EXPERIMENT: RT-qPCR splicing assay, MYB canonical (CJ) and alternative (AJ) junction mRNA
- Assay type: cell-based
- CONDITION DESCRIPTION: Homo sapiens; increase in alternative junction mRNA; A673 or K562 cells, 24 hours treatment; Table 2; read-out: MYB AJ AC50

COMPOUND: Cc1cn2cc(-c3cc(F)c4nn(C5CCNCC5)cc4c3)cc(F)c2n1
AC50: 100 to 1000 nM
//
COMPOUND: CCN1CCC(n2cc3cc(-c4cc(C)c5nc(C)cn5n4)cc(F)c3n2)CC12CCC2 (stereo not drawn)
AC50: 100 to 1000 nM
//
COMPOUND: COc1cc(-c2cc(C)c3nc(C)cn3n2)cc2cn(C3CCNCC3)nc12
AC50: 100 to 1000 nM
//
COMPOUND: Cn1cc2cc(-c3cc(F)c4nn(C5CCNC6(CC6)C5)cc4c3)cc(F)c2n1 (stereo not drawn)
AC50: 1000 to 10000 nM
//
COMPOUND: Cn1cc2cc(-c3cc(F)c4nn(C5CCNCC5)cc4c3)ccc2n1
AC50: 100 to 1000 nM
//
COMPOUND: Cc1cn2nc(-c3ccc4nn(C5CCNCC5)cc4n3)cc(C)c2n1
AC50: 1000 to 10000 nM
//
COMPOUND: Cc1cn2nc(-c3cc(F)c4nn([C@H]5CCNC[C@@H]5F)cc4c3)cc(C)c2n1
AC50: 1000 to 10000 nM
//
COMPOUND: Cc1nc2ccc(-c3cc(F)c4nn(C5CCNCC5)cc4c3)cc2s1
AC50: > 10000 nM
//
COMPOUND: Cc1nc2c(F)cc(-c3cc(F)c4nn(C5CCNCC5)cc4c3)cc2o1
AC50: 100 to 1000 nM
